Provenance of the data: PubChem BioAssay

Molecular target: Beta-2 adrenergic receptor (Homo sapiens) (UniProt P07550)
Sequence (P07550 whole entry, looked up): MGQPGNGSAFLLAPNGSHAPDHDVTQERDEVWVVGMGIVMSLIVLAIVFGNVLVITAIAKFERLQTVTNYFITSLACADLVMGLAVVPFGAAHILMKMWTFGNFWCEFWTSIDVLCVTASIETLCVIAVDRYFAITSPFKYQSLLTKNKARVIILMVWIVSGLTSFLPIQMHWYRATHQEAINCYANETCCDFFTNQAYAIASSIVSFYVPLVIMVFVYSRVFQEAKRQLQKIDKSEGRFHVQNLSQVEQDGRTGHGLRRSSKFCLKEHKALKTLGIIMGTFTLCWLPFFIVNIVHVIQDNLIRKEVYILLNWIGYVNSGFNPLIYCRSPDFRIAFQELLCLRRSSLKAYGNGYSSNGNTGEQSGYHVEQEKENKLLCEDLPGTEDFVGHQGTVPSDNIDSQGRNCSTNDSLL
Assay: agonist-induced loss of surface beta2AR – cell-based, FAP fluorogen, flow cytometry, validation set, pilot screen (AID 504459);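 further: agonist-driven loss of surface beta2AR via internalization measured by FAP dye flow cytometry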
Conditions: Am2.2-beta2AR cells, at 10 µM, stronger effect = higher value
Below, each of the compounds is paired with its reported response value.
Quick note: give the figure in %, leave out the unit.

Worked set:
> print(dat)
                                   compound  measurement.label  reading
1  O=C(N/C(=C/C=C\c1ccccc1)C(=O)N1CCOCC1)c1ccc(Br)cc1           response      -28
2  CC(C)C(CCN1C(=O)CCC1=O)C1CCOC(C)(C)C1 (stereo not given)           response    -1.22

I'd like to know its response. The compound in question is `Nc1ccc2cn[nH]c2c1` 2.17

Same question, CC(C)CC(NC(=O)c1cccc(Cl)c1)C(=O)O (stereo not given) this time -14.8

Same question, `COc1cccc2c(=O)c(C/C=C(/C)Cl)c(C)[nH]c12` this time 3.25

Same question, `CCOC(=O)[C@H]1O[C@@H]1C(=O)N[C@@H](CC(C)C)C(=O)NCCC(C)C` this time -8.75

Same question, Cc1ccc(C2CC(=O)C(C=NCCN3CCN(CC(=O)Nc4cc(C)cc(C)c4)CC3)=C(O)C2)cc1 (stereo not given) this time -1.95

Same question, `COc1ccc2c(=O)c(-c3cnn(-c4ccccc4)c3)c(C)oc2c1` this time -30.2

Same question, `C[C@]12CC[C@@H]3c4ccc(O)cc4CC[C@H]3[C@@H]1CC[C@@H]2OC(=O)CCC(=O)O` this time 3.34

Same question, `CC(=O)[C@H]1[C@H](C#N)C[C@H]2[C@@H]3CC=C4C[C@@H](O)CC[C@]4(C)[C@H]3CC[C@@]21C` this time 2.41

---

Target: Integrin beta-1 (Homo sapiens) + Integrin alpha-4 (Homo sapiens) (UniProt P13612+P05556)
Sequence (P05556 whole entry, looked up): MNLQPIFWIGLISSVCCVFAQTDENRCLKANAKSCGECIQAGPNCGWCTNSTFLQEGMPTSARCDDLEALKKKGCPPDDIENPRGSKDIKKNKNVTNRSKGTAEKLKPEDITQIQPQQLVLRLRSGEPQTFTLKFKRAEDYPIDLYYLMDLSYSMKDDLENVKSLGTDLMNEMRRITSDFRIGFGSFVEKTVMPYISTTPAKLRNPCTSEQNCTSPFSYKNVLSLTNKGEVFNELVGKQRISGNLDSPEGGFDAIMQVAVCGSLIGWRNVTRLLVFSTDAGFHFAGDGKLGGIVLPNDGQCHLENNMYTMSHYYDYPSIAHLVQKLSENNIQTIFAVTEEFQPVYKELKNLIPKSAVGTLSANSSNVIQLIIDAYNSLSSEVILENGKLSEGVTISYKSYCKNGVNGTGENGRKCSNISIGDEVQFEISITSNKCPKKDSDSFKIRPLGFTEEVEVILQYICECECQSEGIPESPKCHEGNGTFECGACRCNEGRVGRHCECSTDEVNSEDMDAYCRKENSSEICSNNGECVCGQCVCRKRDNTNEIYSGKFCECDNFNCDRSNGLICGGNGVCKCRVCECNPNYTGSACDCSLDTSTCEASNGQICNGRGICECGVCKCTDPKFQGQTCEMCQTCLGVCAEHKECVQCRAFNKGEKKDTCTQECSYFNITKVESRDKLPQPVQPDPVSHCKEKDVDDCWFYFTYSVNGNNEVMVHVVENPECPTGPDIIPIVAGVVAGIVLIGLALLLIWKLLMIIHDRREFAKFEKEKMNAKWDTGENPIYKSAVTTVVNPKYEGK
Sequence (P13612 whole entry, looked up): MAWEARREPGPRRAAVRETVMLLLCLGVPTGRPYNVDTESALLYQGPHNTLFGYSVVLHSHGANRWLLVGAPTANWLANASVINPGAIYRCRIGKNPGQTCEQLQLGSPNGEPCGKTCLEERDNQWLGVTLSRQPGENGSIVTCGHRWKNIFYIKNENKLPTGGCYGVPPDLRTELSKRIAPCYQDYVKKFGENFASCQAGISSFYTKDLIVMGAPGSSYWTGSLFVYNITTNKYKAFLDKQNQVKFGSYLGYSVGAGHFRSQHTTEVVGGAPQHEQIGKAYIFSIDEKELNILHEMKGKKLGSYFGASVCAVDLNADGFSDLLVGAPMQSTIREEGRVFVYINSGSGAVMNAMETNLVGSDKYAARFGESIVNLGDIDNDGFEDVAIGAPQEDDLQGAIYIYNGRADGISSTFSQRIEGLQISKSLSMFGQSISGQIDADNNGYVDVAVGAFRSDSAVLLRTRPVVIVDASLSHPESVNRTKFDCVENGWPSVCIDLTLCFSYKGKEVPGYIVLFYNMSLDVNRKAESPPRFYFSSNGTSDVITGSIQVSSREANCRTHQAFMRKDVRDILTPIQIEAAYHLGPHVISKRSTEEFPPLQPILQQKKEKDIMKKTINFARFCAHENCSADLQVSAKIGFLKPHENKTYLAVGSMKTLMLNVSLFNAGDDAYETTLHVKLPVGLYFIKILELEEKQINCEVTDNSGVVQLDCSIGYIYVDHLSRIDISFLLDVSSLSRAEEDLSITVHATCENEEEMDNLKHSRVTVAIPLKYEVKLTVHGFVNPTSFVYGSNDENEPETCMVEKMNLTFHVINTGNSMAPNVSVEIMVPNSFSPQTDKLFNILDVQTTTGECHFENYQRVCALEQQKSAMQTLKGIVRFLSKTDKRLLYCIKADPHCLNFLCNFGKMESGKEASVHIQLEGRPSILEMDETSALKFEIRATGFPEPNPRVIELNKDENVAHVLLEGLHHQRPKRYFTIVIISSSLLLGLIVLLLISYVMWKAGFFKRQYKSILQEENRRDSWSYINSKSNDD
Experiment: alpha4beta1 integrin LIBS antibody binding reduction – U937 cells, HUTS-21 mAb, flow cytometry, validation set, VLA-4 allosteric modulator project, pilot screen (AID 2674);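 further: antibody binding induced by the VLA-4 ligand LDV present at three times its Kd; 0% = LDV ligand with antibody and no compound and 100% = antibody without LDV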
Details: HUTS-21 LIBS mAb binding, at 6.7 µM, stronger effect = higher value, binding induced by LDV ligand
MEASUREMENT LABEL: inhibition (%)
Quick note: give the figure in %, leave out the unit.

Worked set:
> print(dat)
                                   compound  reading
1               Cc1cccc(Nc2ccccc2C(=O)O)c1C     4.84
2  CC(C)(Sc1cc(C(C)(C)C)c(O)c(C(C)(C)C)c1)Sc1cc(C(C)(C)C)c(O)c(C(C)(C)C)c1    -2.43
3  CCOc1ccc(C(NC(C)=O)c2ccc(OC)c(OC)c2)cc1 (configuration not stated)    -20.4
4           COC(=O)c1ccccc1NC(=O)NCc1ccccc1    -0.33

I'd like to know its inhibition. The compound in question is `CN(C)CCN(Cc1ccc(Cl)cc1)c1ccccn1` 0.25

Same question, `COc1cc2c(cc1NCc1ccc3c(c1)OCO3)oc1ccccc12` this time 1.61

Same question, `O=C(Cc1ccccc1[N+](=O)[O-])NCCCN1CCOCC1` this time -4.52

Same question, `c1ccc2[nH]c(-c3cscn3)nc2c1` this time 2.29

Same question, `CCc1ccc(CN(C)Cc2nc(Cc3ccccc3)no2)nc1` this time 0.59

Same question, `COc1cc(SC)ccc1C(=O)NC(C)C` this time -9.98

Same question, CCOC(=O)C1CCCN(Cc2nc(Cc3cccc(F)c3)no2)C1 (configuration not stated) this time 5.61

Same question, `Cc1ccc(S(=O)(=O)NC(=O)Nc2cc(C)ccc2F)cc1` this time 2.66

---

Biological target: GTPase HRas (Homo sapiens) (UniProt P01112)
Sequence (P01112 whole entry, looked up): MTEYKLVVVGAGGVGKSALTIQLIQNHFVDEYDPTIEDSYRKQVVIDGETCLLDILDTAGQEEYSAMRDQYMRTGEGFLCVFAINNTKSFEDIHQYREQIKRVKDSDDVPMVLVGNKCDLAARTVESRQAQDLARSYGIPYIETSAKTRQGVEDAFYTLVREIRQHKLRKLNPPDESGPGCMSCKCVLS
Assay: Ras wt fluorescent GTP loading blockade – biochemical, wildtype, multiplex bead flow cytometry, dose response (AID 1335)
Details: bead-based flow cytometry, Bodipy-GTP binding to GST-Ras; at 100 µM (top of the series) unless noted
Strictly below 70% in GTP binding, percent of control: 1.0. Otherwise: 0.0.

Some solved entries appear below for comparison.
> print(dat)
                                   compound  category
1  COc1ccc(N(CC(=O)Nc2cccc(C)c2C)S(=O)(=O)c2c(C)n[nH]c2C)cc1       0.0
2  CCOC(=O)CN(C(=O)CSc1nnc2c(n1)[nH]c1ccc(OC)cc12)c1ccc(F)cc1       1.0

is_below(GTP binding, percent of control, 70%) for `COC(=O)c1cc(NC(=O)c2cccc(Cl)c2)c(=O)oc1/C=C/Nc1cc(C)cc(C)c1` ? 0.0

Same question, `COc1ccc(-c2nnc(S/C(=C/c3ccc(Cl)cc3)C(=O)O)o2)cc1` this time 0.0

Same question, `Cc1ccc(/C=N/N(C)C2=NS(=O)(=O)c3ccccc32)o1` this time 1.0

Same question, `COc1cccc(NC(=O)NCCCN2CCN(c3ccc(F)cc3)CC2)c1` this time 0.0

---

Target: Regulator of G-protein signaling 16 (Homo sapiens)
Assay: small molecules altering RGS protein interactions with GNAO1 – biochemical, multiplexed beads, flow cytometry, RGS4/7/8/16/19, primary screen (AID 1504);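 further: fluorescently labeled Galpha-o bound to GDP with aluminium fluoride binding biotinylated RGS beads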
Conditions: multiplexed bead flow cytometry, measured here: RGS16 interaction, at 10 µM
This is one part of the list.
Category | rule: reported RGS16–Galpha-o binding response within range, see bucket 1 = under 10%, bucket 2 = from 10% up to 200%, bucket 3 = 200% and over

Some solved entries appear below for comparison.
> print(dat)
                                   compound                              assay.target  category
1  Cc1ccc(-n2c(SCC(=O)Nc3ncc(Cl)cc3Cl)nc3ccccc32)cc1  Regulator of G-protein signaling 16 (Homo sapiens)  bucket 2
2  Cc1cccc(S(=O)(=O)CC(=O)Nc2nc(-c3ccccc3)cs2)c1  Regulator of G-protein signaling 16 (Homo sapiens)  bucket 3
3  O=C(CSc1ccc2nnc(-c3ccccc3)n2n1)N1CCCc2ccccc21  Regulator of G-protein signaling 16 (Homo sapiens)  bucket 3
4  CCCC1C(c2ccccc2)C(C#N)(C#N)C2(C#N)CC1(N)NC2=O (stereo not given)  Regulator of G-protein signaling 16 (Homo sapiens)  bucket 2
5  COc1cc(C2/C(=C(\O)c3ccc4c(c3)CC(C)O4)C(=O)C(=O)N2Cc2ccco2)ccc1O (stereo not given)  Regulator of G-protein signaling 16 (Homo sapiens)  bucket 1
6                  Oc1ccc(N=Nc2nccs2)c(O)c1  Regulator of G-protein signaling 16 (Homo sapiens)  bucket 1

Band for the recorded RGS16–Galpha-o binding response of `COc1ccc(-n2c(SCC(=O)OC(C)C)nnc2-c2ccccn2)cc1` ? bucket 3

Same question, Cc1cc(C)n(CC(O)CN(c2ccccc2)S(=O)(=O)c2ccc3ccccc3c2)n1 (stereo not given) this time bucket 1

Same question, `CC(=O)N1CC[n+]2c(-c3ccc([N+](=O)[O-])cc3)csc21` this time bucket 2

Same question, `CCN(CC)CCn1cnc2c1c(=O)n(CCOC(=O)c1cc(OC)c(OC)c(OC)c1)c(=O)n2C` this time bucket 2

---

Test: cytosolic pH regulators acting via V-ATPase – S. cerevisiae, pHLuorin, HTS validation (AID 504600);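 further: plate controls were DMSO for no effect and reference compound for full effect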
Conditions: V-ATPase proton transport, at 10 µM, stronger effect = higher value
Below, each of the compounds is paired with its reported response value.
Quick note: give the figure in %, leave out the unit.

Worked set:
> print(dat)
                                   compound  measurement.label  reading
1   COc1ccc(/C=C/C(=O)Nc2ccccc2C(=O)O)cc1OC           response     6.81
2  O=C1[C@@H]2[C@H](Cc3ccc(O)cc3)N[C@]3(C(=O)Nc4ccccc43)[C@@H]2C(=O)N1c1ccc(F)cc1           response    -0.08
3        CC(=O)N(C(C)=O)c1nc2nc(C)cc(C)n2n1           response    -0.39
4  COc1ccccc1N1CCN(CC(O)COc2cccc3ccccc23)CC1 (stereo not given)           response     5.97
5  CCCCCC(=O)O[C@]1(C(C)=O)CC[C@H]2[C@@H]3CCC4=CC(=O)CC[C@]4(C)[C@H]3CC[C@@]21C           response     -0.4

I'd like to know its response. The compound in question is COC(=O)C1=NN(C(=O)c2cccc(Br)c2)C(O)(c2ccc(Cl)cc2)C1 (stereo not given) -0.27

---

Molecular target: Integrin beta-1 (Homo sapiens) + Integrin alpha-4 (Homo sapiens) (UniProt P13612+P05556)
Assay: alpha4beta1 integrin LIBS antibody binding reduction – U937 cells, HUTS-21 mAb, flow cytometry, validation set, VLA-4 allosteric modulator project, pilot screen (AID 2674);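 further: antibody binding induced by the VLA-4 ligand LDV present at three times its Kd; 0% = LDV ligand with antibody and no compound and 100% = antibody without LDV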
Settings: HUTS-21 LIBS mAb binding, at 6.7 µM, stronger effect = higher value, binding induced by LDV ligand
MEASUREMENT LABEL: inhibition (%)
Quick note: give the figure in %, leave out the unit.

Worked set:
> print(dat)
                              compound                              assay.target  measurement.label  result.unit  reading
1          CNCCCC1c2ccccc2C=Cc2ccccc21  Integrin beta-1 (Homo sapiens) + Integrin alpha-4 (Homo sapiens) (UniProt P13612+P05556)         inhibition            %      8.4
2  CCn1nc(C(=O)O)c(=O)c2cc3c(cc21)OCO3  Integrin beta-1 (Homo sapiens) + Integrin alpha-4 (Homo sapiens) (UniProt P13612+P05556)         inhibition            %     14.1
3                CCCCOC(=O)c1ccc(N)cc1  Integrin beta-1 (Homo sapiens) + Integrin alpha-4 (Homo sapiens) (UniProt P13612+P05556)         inhibition            %    -15.8

I'd like to know its inhibition. The compound in question is `CC(C)C(=O)Nc1ccc2c3c(cccc13)CC2` 10.5

Same question, COc1ccc(C2C3=C(OC(C)=O)c4ccccc4C3=Nc3c2c(=O)n(C)c(=O)n3C)cc1 (stereo not drawn) this time 1.59
